# Organism: Rattus norvegicus
# Measurement Description: DrugMatrix - Regimen: Daily Repeat
# Format: toxicity, organism-based, Sprague-Dawley
# Set-up: regimen Daily Repeat, gender Male, age 6-8 weeks
# Assay Context: in vivo, po, 0 mg/kg, 120 h, tissue Plasma, route oral GAVAGE, dose level Control, time 5 day, […]
Please provide measured TOTAL BILIRUBIN for the entries that follow.
One number for each entry, in mg/dL.

Would you please look over these solved cases?
Compound	Readout	Endpoint Result
Clc1ccc(COC(Cn2ccnc2)c2ccc(Cl)cc2Cl)cc1 (stereo not given)	TOTAL BILIRUBIN	0.2
CO[C@H]1/C=C/O[C@@]2(C)Oc3c(C)c(O)c4c(O)c(c(/C=N/N5CCN(C6CCCC6)CC5)c(O)c4c3C2=O)NC(=O)/C(C)=C\C=C\[C@H](C)[C@H](O)[C@@H](C)[C@@H](O)[C@@H](C)[C@H](OC(C)=O)[C@@H]1C	TOTAL BILIRUBIN	0.17
COc1cc(N)c(Cl)cc1C(=O)NC1CCN(CCCOc2ccc(F)cc2)CC1OC (stereo not given) [CISAPRIDE]	TOTAL BILIRUBIN	0.17
CC(C)(C)NC(=O)[C@H]1CC[C@H]2[C@@H]3CC[C@H]4NC(=O)C=C[C@]4(C)[C@H]3CC[C@]12C [FINASTERIDE]	TOTAL BILIRUBIN	0.17

Enquiry: Consider the compound COc1cc([C@@H]2c3cc4c(cc3[C@@H](O[C@@H]3O[C@@H]5CO[C@@H](C)O[C@H]5[C@H](O)[C@H]3O)[C@H]3COC(=O)[C@H]23)OCO4)cc(OC)c1O [ETOPOSIDE] . State its measured TOTAL BILIRUBIN.
Return: 0.37
